# ASSAY_SYSTEM: Androgen Receptor (Homo sapiens, UniProt P10275)
# Construct: endogenous in cells; host or cells: VCaP cells
# Sequence (P10275 whole entry): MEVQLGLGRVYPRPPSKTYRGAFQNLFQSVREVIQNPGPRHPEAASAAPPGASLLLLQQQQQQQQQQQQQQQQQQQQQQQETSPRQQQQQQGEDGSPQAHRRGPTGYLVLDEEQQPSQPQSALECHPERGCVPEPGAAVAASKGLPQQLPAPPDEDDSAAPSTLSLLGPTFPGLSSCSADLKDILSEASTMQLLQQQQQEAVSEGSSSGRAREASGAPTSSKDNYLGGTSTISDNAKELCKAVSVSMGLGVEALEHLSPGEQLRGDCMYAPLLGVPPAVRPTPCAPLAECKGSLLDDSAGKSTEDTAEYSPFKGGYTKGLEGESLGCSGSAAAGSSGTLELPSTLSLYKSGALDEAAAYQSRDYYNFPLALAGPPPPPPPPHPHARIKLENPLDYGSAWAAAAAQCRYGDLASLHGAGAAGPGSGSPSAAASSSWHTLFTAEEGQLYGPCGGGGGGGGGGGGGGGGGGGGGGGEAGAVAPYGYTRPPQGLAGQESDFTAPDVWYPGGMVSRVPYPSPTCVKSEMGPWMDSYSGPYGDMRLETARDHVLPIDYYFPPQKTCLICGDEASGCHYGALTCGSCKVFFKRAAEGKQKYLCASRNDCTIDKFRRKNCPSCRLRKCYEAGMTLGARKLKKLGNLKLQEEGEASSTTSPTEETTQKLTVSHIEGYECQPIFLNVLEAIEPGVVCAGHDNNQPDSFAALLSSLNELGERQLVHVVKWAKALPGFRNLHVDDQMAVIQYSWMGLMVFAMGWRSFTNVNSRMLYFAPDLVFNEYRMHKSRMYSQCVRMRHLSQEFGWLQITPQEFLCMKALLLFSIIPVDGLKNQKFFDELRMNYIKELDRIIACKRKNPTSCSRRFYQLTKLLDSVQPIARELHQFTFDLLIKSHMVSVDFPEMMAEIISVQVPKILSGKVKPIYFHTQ
# ASSAY_PROCEDURE: Androgen Receptor ELISA assay (PathScan AR ELISA) in VCaP cells: AR degradation, Dmax and DC50
# Assay type: cell-based
# COND: read-out: VCaP DC50; VCaP cells; Table 36
MEASUREMENT_TYPE: DC50

COMPOUND	MEASUREMENT
Cc1ncsc1-c1ccc([C@H](C)NC(=O)[C@@H]2C[C@@H](O)CN2C(=O)[C@@H](NC(=O)CN2CCO[C@H](CN3CCO[C@@H](COc4ccc(N5C(=S)N(c6ccc(C#N)c(C(F)(F)F)c6)C(=O)C5(C)C)cc4)C3)C2)C(C)(C)C)cc1	> 501 nM
Cc1ncsc1-c1ccc([C@H](C)NC(=O)[C@@H]2C[C@@H](O)CN2C(=O)[C@@H](NC(=O)CN2CC3CCC(C2)N3CCCc2ccc(C(=O)NC3C(C)(C)C(Oc4ccc(C#N)c(Cl)c4)C3(C)C)cc2)C(C)(C)C)cc1 (some centres unmarked)	< 50 nM
Cc1ncoc1C12CC(CNC(=O)[C@@H]3C[C@@H](O)CN3C(=O)C(NC(=O)COCCCOCCCOc3ccc(N4C(=O)N(c5ccc(C#N)c(C(F)(F)F)c5)C(=O)C4(C)C)cc3)C(C)(C)C)(C1)C2 (some centres unmarked)	> 501 nM
Cc1ncsc1-c1ccc([C@H](C)NC(=O)[C@@H]2C[C@@H](O)CN2C(=O)[C@@H](C(C)C)n2cc(OCCCOCCCn3cnc(-c4ccc(N5C(=S)N(c6ccc(C#N)c(C(F)(F)F)c6)C(=O)C5(C)C)cc4)c3)cn2)cc1	> 501 nM
Cc1ncsc1-c1ccc([C@H](C)NC(=O)C2CC3CN2C(=O)C(C(C)(C)C)NC(=O)COCCCOCCC(CCOc2ccc(N4C(=O)N(c5ccc(C#N)c(C(F)(F)F)c5)C(=O)C4(C)C)cc2)OC(=O)CCCCCn2cc(nn2)CCC(=O)O3)cc1 (some centres unmarked)	51 to 500 nM
Cc1ncsc1-c1ccc(CNC(=O)[C@@H]2C[C@@H](O)CN2C(=O)[C@@H](C(C)C)n2cc(OC3CCN(c4ccc(-c5ccc(N6C(=S)N(c7ccc(C#N)c(C(F)(F)F)c7)C(=O)C6(C)C)cc5)cn4)CC3)cn2)cc1	> 501 nM
Cc1ncsc1-c1ccc([C@H](C)NC(=O)[C@@H]2C[C@@H](O)CN2C(=O)[C@H](C(C)C)n2cc(OCCCOCCCn3cnc(-c4ccc(N5C(=S)N(c6ccc(C#N)c(C(F)(F)F)c6)C(=O)C5(C)C)cc4)c3)cn2)cc1	> 501 nM
Cc1ncsc1-c1ccc([C@H](C)NC(=O)[C@@H]2C[C@@H](O)CN2C(=O)[C@@H](C(C)C)n2cc(-c3ccnc(N4CC[C@H](Oc5ccc(N6C(=S)N(c7ccc(C#N)c(C(F)(F)F)c7)C(=O)C6(C)C)cc5)C4)c3)cn2)cc1	> 501 nM

The reported measurements were obtained from patent US11427548B2.
